- system_name: T1, recombinant human CD127 extracellular domain (CD127 ECD) (human) (UniProt P16871)
- T1 sequence: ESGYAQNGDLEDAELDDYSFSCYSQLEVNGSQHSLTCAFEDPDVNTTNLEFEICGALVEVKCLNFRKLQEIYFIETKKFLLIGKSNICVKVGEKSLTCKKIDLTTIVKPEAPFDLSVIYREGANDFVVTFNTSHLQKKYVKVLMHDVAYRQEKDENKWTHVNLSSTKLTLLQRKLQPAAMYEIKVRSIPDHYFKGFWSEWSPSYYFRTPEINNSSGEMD
- test_details: SPR (Biacore T100, 25 °C), antibody captured on rabbit anti-mouse IgG, CD127 ECD as analyte
attribute_measured: Kd (nM)
Could you give me the number in nM? Just the number is fine.

Before answering, review these 3 worked examples.
Returns the measured Kd for the input binder. Input: mAb GR34 (reverse engineered clone of R34.34) (antibody, mouse IgG1, V domains shown) VH: EVQLQQSGPELVKPGASMKISCKASGYSFTGYTMNWVKQSHGKNLEWIGLINPYSGITSYNQNFKGKATLTVDKSSSTAYMELLNLTSEDSAVYYCARGDGNYWYFDVWGAGTTVTVSS VL: EIILTQSPAITAASLGQKVTITCSASSSVSYMHWYQQKSGTSPKPWIYEISKLASGVPARFSGSGSGTSYSLTISSMEAEDAAIYYCQYWNYPYTFGGGTKLEIK
15.3

Returns the measured Kd for the input binder. Input: mAb 6A3 (murine anti-human CD127 monoclonal antibody) (antibody, mouse IgG1, V domains shown) VH: DVQLQESGPGLVKPSQSLSLTCTVTGYSITTDYAWNWIRQFPGNKLEWMGYIFYSGSTTYTPSLKSRISITRDTSKNQFFLQLNSVTTEDTATYYCARGGYDVNYFDYWGQGTTLTVSS VL: DIQMTQSPASQSASLGESVTITCLASQTIGAWLAWYQQKPGKSPQLLIYAATRLADGVPSRFSGSGSGTKFSFKISSLQAEDFVSYYCQQFFSTPWTFGGGTKLEIK
7.74

Returns the measured Kd for the input binder. Input: mAb 1A11 (murine anti-human CD127 monoclonal antibody) (antibody, mouse IgG1, V domains shown) VH: EVQLQQSGPELLKPGASMKISCKASGYSFTGYTMNWVKQSHGKNLEWIGLINPYNGVTSYNQKFKGKATLTVAKSSSTAYMELLSLTSEDSAVYYCARGDGNYWYFDVWGAGTTVTVSS VL: EIVLTQSPAITAASLGQKVTITCSASSSVTYMHWYQQKSGTSPKPWIYEISKLASGVPVRFSGSGSGTSYSLTISSMEAEDAAIYYCQEWNYPYTFGGGTKLEIK
3.44

Turning to the following binder.
Returns the measured Kd for the input binder. Input: mAb 6C5 (murine anti-human CD127 monoclonal antibody) (antibody, mouse IgG1, V domains shown, also called Antibody 6C5) VH: EVKLLESGGGLVQPGGSLKLSCAASGFAFSAYWMSWVRQAPGKGLEWIGEINPDSSTINCTPSLKDKFIISRDNAKNTLSLQMNKVRSEDTALYYCARRLRPFWYFDVWGAGTTVTVSS VL: DVLMTQTPLSLPVSLGDQASISCRSSQSIVQSNGNTYLEWYLQKPGQSPKLLIYKVSNRFSGVPDRFSGSGSGTDFTLKISRVEAEDLGVYYCFQGSHVPRTFGGGTKLEIK
24.4
